Reported values of inhibition at 100 µM for individual entries
# subject of test: SARS-CoV-2 Mac1 (Severe acute respiratory syndrome coronavirus 2, UniProt P0DTD1)
# experimental details: biochemical
# setup conditions: read-out: %inhibition
# include the unit after the value

1. FC(F)(F)C(Cl)Br (stereo not shown) = 0%

Can you share its inhibition at 100 µM? I mean this compound: Cn1nnnc1SCC1=C(C(=O)O)N2C(=O)[C@@H](NC(=O)[C@H](OC=O)c3ccccc3)[C@H]2SC1 [Cefamandole nafate]
0%

Now give it for CCN(CC)C(=O)/C(C#N)=C/c1cc(O)c(O)c([N+](=O)[O-])c1 too.
0%

Now give it for Cc1cc(C)cc(OCC2CNC(=O)O2)c1 (stereo not shown) too.
0%

Now give it for C[C@@H](c1nc(-c2ccc(C#N)cc2)cs1)[C@](O)(Cn1cncn1)c1cc(F)ccc1F too.
0%

Now give it for C[C@@H](c1ncncc1F)[C@](O)(Cn1cncn1)c1ccc(F)cc1F too.
0%

Now give it for O=C1CN(/N=C/c2ccc([N+](=O)[O-])o2)C(=O)N1 too.
4.04%

Now give it for C=CC[C@]1(O)CC[C@H]2[C@@H]3CCC4=CC(=O)CCC4=C3C=C[C@@]21C too.
0%

Now give it for Cc1ccc(C(=O)N(CCCN)[C@@H](c2nc3cc(Cl)ccc3c(=O)n2Cc2ccccc2)C(C)C)cc1 [Ispinesib (SB-715992)] too.
0%

Now give it for OC[C@@H](O)CN1CCN(c2ccccc2)CC1 too.
4.43%

Now give it for O=C(O)c1ccc(NC(=O)[C@H](Cc2ccc(O)cc2)NC(=O)c2ccccc2)cc1 [Bentiromide] too.
3.94%

Now give it for CCC(C)(C)C(=O)O[C@H]1C[C@@H](C)C=C2C=C[C@H](C)[C@H](CC[C@@H]3C[C@@H](O)CC(=O)O3)[C@H]21 too.
14%

Now give it for CN[C@@H]1[C@H](O)[C@H](NC)[C@H]2O[C@@]3(O)C(=O)C[C@@H](C)O[C@H]3O[C@@H]2[C@H]1O [Spectinomycin 2HCl] too.
11.7%
